target: Factor X, P00742
Sequence (P00742 whole entry, looked up): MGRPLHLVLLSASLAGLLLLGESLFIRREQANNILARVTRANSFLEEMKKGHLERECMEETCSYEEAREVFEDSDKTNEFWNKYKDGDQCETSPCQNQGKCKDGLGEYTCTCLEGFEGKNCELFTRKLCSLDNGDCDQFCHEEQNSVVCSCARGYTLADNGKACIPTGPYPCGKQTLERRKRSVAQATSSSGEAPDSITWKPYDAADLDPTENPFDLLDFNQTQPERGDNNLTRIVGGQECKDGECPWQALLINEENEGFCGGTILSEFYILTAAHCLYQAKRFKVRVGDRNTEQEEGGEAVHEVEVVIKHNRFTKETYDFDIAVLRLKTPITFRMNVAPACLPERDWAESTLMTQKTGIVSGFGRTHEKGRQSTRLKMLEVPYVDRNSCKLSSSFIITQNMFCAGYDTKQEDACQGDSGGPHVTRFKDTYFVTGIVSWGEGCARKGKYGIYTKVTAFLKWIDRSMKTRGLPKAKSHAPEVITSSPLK
QUANTITY NAME: KM (Catalytic activity of FIXa variants) (µM)
Kindly provide the numeric value in µM only, without the unit symbol.

**Q:** For the protein FIXa-D203N/F205T/K228N (protein) chain 1: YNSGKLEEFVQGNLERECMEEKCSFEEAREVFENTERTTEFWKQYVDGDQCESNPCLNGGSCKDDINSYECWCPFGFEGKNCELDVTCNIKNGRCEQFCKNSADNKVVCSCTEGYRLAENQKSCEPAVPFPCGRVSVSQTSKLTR chain 2: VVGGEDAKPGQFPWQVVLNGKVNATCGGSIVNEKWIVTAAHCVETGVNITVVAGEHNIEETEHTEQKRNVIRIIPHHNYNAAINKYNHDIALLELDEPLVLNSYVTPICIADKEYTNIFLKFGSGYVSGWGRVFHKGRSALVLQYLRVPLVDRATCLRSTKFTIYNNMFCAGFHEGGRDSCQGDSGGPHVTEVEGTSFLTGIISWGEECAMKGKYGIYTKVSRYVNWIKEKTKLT , give its reported KM (Catalytic activity of FIXa variants).
**A:** 0.0399

Measured values drawn from patent US20210230570 for this set.
